Procedure summary: ATG_GATA_CIS: Attagene CIS-FACTORIAL HepG2 Assay for human GATA Binding Protein (AID 2282944)
Applied conditions: HepG2 GATA cis-element reporter, Attagene multiplex mRNA; actives raise or lower the signal
Calls of active or inactive are those of the source. Rule for the calls: active = hit-call score of the fitted dose curve at least 0.9, where 1 is the maximum; inactive = score below 0.9.
Lab note: assign the record to one of True for active, False for inactive

The following compounds have reported results that may help.
compound=C=CC(=O)O[C@H]1C[C@@H]2CC[C@@]1(C)C2(C)C answer_label=False
compound=Cc1c(Cl)cccc1Cl answer_label=False
compound=CCCCCC(=O)OCC answer_label=False
compound=Clc1cc(Cl)c(Cl)c(Cl)c1Cl answer_label=False
compound=CCOC(=O)C1=NOC(c2ccccc2)(c2ccccc2)C1 answer_label=False

# lookup: test call for "CCCCCCCCCCCCCCCCCCOS(=O)(=O)O" False

# lookup: test call for "CCOC(=O)c1ccc(C)cc1" False

# lookup: test call for CCC1(C)C(=O)N(Cl)C(=O)N1Cl (stereo not given) False

# lookup: test call for "CCCCCCCC(=O)OCC" False

# lookup: test call for "CC(C)c1ccc2ncccc2c1" False

# lookup: test call for "O=C1CCCCCCCCCCC1" False

# lookup: test call for "Fc1ccc(Br)cc1" False

# lookup: test call for "CCCCCCO" False
